Target: MAGI1-2/6 PDZ domain (Mus musculus)
Construct: The cDNA encoding residues 448–572 and 613–752 of mouse MAGI-1 (UniProt acc.: Q6RHR9-1) encoding for MAGI1-2/6; made in house; host or cells: E. coli BL21 DE3
Sequence (Q6RHR9 448-572): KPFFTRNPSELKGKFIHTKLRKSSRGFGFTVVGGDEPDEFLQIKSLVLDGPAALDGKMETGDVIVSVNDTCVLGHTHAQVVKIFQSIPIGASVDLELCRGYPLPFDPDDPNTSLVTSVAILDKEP
Assay: SPR binding of MBP-PDZ analyte to immobilised biotinylated peptides
Details: SPR Biacore 2000, 25 C, steady state, 1:1 binding isotherm, MBP-PDZ 0-30 µM; to be considered with caution; read-out: tentative KD
Protocol: We opted for the surface plasmon resonance (SPR) method to measure these 190 (19 proteins×2 peptide versions×5 PDZ constructs) interactions. […] The amount of analyte interacting with the ligand is measured and quantified in response units (RU). […] However, these calculated K [drawing 14] were rather inaccurate especially for weak interactions. […]
Ends that are not written are not given here.
measurement.kind: pKd
As a rule, pKd stands for the negative log10 of the concentration, concentration in M.

get_value(item= NPDALPETLV [ARHGAP6_10] , readout=pKd) returns 4.74

get_value(item= KPGKGSETVV [FZD4_10] , readout=pKd) returns 4.64
